The values you see were collected from BindingDB's records for doi:10.1021/bi1017182.

Biological target: Carbon monoxide dehydrogenase small chain (Afipia carboxidovorans (strain ATCC 49405 / DSM 1227 / KCTC 32145 / OM5))
Sequence (P19921 whole entry): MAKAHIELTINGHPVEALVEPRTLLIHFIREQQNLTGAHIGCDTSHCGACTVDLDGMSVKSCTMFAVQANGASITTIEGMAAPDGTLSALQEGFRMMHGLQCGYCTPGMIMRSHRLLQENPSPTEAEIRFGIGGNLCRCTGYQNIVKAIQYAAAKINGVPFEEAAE
Experiment: Inhibition Assay
value kind: pKd
API: returns pKd as number; meaning -log10 of concentration in mol/L.

stdin: Given the molecule O=C1C=CC(=O)c2ccccc21 [1,4-dihydronaphthalene-1,4-dione] , what is its reported pKd?
stdout: 3.85

stdin: Given the molecule O=C1C=CC(=O)C=C1 , what is its reported pKd?
stdout: 4.32
